- Experimental context: Well 1 / %R; Well 1; UV detection
# maps each entry to its % recovery
Numbers only; they are read as %.

According to the records, this compound CCCCC[C@H](NC(=O)[C@@H](C)N(C)C(=O)OC(C)(C)C)C(=O)N(C)[C@H](C)C(=O)N[C@H](CCCCC)C(=O)N(C)[C@H](C)C(=O)O[C@@H](CCCCC)C(=O)N(C)[C@H](C)C(=O)O[C@@H](CCCCC)C(=O)OCc1ccccc1 (stereo in doubt) [Compound L2.2] displays % recovery of 95

According to the records, this compound CCCCC[C@H](OC(=O)[C@@H](C)N(C)C(=O)[C@H](CCCCC)OC(=O)[C@@H](C)N(C)C(=O)OC(C)(C)C)C(=O)OCc1ccccc1 [Compound L1.2] displays % recovery of 93

According to the records, this compound CCCCC[C@H](OC(=O)[C@@H](C)N(C)C(=O)[C@H](CCCCC)OC(=O)[C@@H](C)N(C)C(=O)[C@H](CCCCC)OC(=O)[C@@H](C)N(C)C(=O)[C@H](CCCCC)OC(=O)[C@@H](C)N(C)C(=O)OC(C)(C)C)C(=O)OCc1ccccc1 [Compound L1.4] displays % recovery of 94
